Target: 5-hydroxytryptamine receptor 6 (Homo sapiens, UniProt P50406)
Sequence (P50406 whole entry): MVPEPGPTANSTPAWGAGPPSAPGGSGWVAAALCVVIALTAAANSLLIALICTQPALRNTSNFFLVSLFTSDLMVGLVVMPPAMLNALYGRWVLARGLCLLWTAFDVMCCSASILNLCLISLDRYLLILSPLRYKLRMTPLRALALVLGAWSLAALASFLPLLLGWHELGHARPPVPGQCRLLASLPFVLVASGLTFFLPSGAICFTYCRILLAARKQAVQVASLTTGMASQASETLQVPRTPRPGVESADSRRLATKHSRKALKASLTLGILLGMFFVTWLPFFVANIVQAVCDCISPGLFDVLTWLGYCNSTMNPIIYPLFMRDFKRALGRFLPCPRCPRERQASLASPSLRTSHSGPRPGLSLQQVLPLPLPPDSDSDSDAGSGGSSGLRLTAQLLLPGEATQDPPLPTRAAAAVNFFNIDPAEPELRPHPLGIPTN
Experiment: Agonist activity at human cloned 5HT6 receptor expressed in HeLa cells assessed as induction of adenylyl cyclase activity by RIA relative to serotonin
Type: functional, cell-based
# key: entry, value: Emax
Respond with the bare value in %.

NCCn1cc(S(=O)(=O)c2ccccc2)c2ccccc21
67

Fill in: Emax of `CN(C)CCn1cc(S(=O)(=O)c2ccccc2)c2ccccc21` is ___
63

I have this compound here, `CN(C)CCn1cc(S(=O)(=O)c2cccc3ccccc23)c2cccnc21` , and I need its recorded Emax.
63

Query: Emax; subject: `NCCn1cc(S(=O)(=O)c2ccccc2)c2cccnc21`
100

# query: Emax of entry `NCCn1cc(S(=O)(=O)c2ccc(F)cc2)c2cccnc21`
100

Item under review: `CN(C)CCn1cc(S(=O)(=O)c2ccc(Cl)s2)c2cccnc21` . Reported Emax?
93

// Emax lookup, key: `CN(C)CCn1cc(S(=O)(=O)c2c(Cl)cccc2Cl)c2cccnc21`
66

====

Molecular target: 5-hydroxytryptamine receptor 6 (Homo sapiens, UniProt P50406)
Experiment: Antagonist activity at human cloned 5HT6 receptor expressed in HeLa cells assessed as inhibition of adenylyl cyclase activity by RIA
ENDPOINT_LABEL: IC50
Output should be the measured figure followed by the unit it is expressed in.

Worked cases, IC50 given:
CNCCn1cc(S(=O)(=O)c2c(Cl)nc3sccn23)c2cccnc21
5.4 nM
CNCCn1cc(S(=O)(=O)c2cccc(F)c2)c2cccnc21
6.2 nM
CNCCn1cc(S(=O)(=O)c2cccc(Cl)c2)c2cccnc21
8.3 nM

Below: the item to evaluate.
Requested field: IC50. Item: `CN(C)CCn1cc(S(=O)(=O)c2cc(Cl)ccc2Cl)c2cccnc21`
15 nM

====

Molecular target: UniProt P30939
Sequence (P30939 whole entry): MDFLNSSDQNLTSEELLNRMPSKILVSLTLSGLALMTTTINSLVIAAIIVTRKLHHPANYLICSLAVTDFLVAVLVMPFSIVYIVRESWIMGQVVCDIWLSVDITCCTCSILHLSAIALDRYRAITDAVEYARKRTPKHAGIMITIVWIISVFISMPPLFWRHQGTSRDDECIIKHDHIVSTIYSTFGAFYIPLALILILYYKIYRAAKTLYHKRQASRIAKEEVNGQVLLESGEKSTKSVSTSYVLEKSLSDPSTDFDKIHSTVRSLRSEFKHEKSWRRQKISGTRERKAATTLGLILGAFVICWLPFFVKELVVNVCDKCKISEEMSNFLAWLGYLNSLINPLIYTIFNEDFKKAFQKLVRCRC
Assay: Displacement of [3H]5-HT from human cloned 5HT1F receptor expressed in CHO cells at 1 uM
Format: cell-based
ENDPOINT_LABEL: inhibition (%)
Just the number in %, nothing appended.

A selection of reference data follows.
NCCn1cc(S(=O)(=O)c2ccccc2)c2cccnc21
14
CN(C)CCn1cc(S(=O)(=O)c2cccc3ccccc23)c2cccnc21
10
CN(C)CCn1cc(S(=O)(=O)c2cccc(Cl)c2)c2cccnc21
29

Here's the next entry for you.
For the molecule shown here, `CN(C)CCn1cc(S(=O)(=O)c2cccc(F)c2)c2cccnc21` , give the reported inhibition.
22

====

Biological target: UniProt:P34969
Sequence (P34969 whole entry): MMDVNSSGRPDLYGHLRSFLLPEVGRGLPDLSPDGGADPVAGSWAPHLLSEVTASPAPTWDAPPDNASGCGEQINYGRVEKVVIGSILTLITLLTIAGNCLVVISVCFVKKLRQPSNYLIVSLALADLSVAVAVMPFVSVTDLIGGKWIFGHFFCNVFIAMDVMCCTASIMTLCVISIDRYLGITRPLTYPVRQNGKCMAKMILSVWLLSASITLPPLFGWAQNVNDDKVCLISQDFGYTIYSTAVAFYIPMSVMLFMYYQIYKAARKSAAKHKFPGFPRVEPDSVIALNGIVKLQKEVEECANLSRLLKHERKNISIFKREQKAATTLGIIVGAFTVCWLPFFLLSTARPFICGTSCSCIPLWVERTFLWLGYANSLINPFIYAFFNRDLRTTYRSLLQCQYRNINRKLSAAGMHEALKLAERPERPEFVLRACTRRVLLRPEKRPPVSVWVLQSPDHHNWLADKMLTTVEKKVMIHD
Test: Displacement of [3H]LSD from human cloned 5HT7 receptor expressed in CHO cells
ENDPOINT_LABEL: IC50 (nM)
Report the value in nM with no unit label.

CN(C)CCn1cc(S(=O)(=O)c2cccc(Cl)c2)c2cccnc21
1220
CN(C)CCn1cc(S(=O)(=O)c2cccc3ccccc23)c2cccnc21
511
NCCn1cc(S(=O)(=O)c2cccc(Cl)c2)c2cccnc21
1360

Please look at the following compound next.
What measured IC50 goes with `CN(C)CCn1cc(S(=O)(=O)c2cccc(F)c2)c2cccnc21` ?
4760

====

Molecular target: 5-hydroxytryptamine receptor 1B (Homo sapiens)
Assay: Displacement of [3H]5-HT from human cloned 5HT1B receptor expressed in CHO cells at 1 uM
Format: cell-based
Catalogue of inhibition readings, one per entry.
Only the number, expressed in %, is required.

Some compounds with known inhibition results, for comparison:
CN(C)CCn1cc(S(=O)(=O)c2cccc(Cl)c2)c2cccnc21
46
CN(C)CCn1cc(S(=O)(=O)c2cccc(F)c2)c2cccnc21
30
NCCn1cc(S(=O)(=O)c2ccccc2)c2cccnc21
11

Consider the record given below.
What value of measured inhibition is listed for `CN(C)CCn1cc(S(=O)(=O)c2cccc3ccccc23)c2cccnc21` ?
40

Origin of measurements: ChEMBL document CHEMBL1155250
